Test system: RubisCO
Format: cell-based, Ralstonia eutropha
Details: Table 12, chemoautotrophic (induced) growth
Measured attribute: Chemoautotrophic RubisCO activity

T232A (protein) MSSFLRALTLRQLQIFVTVARHASFVRAAEELHLTQPAVSMQVKQLESVVGMALFERVKGQLTLTEPGDRLLHHASRILGEVKDAEEGLQAVKDVEQGSITIGLISTSKYFAPKLLAGFTALHPGVDLRIAEGNRETLLRLLQDNAIDLALMGRPPRELDAVSEPIAAHPHVLVASPRHPLHDAKGFDLQELRHETFLLREPGSGTRTVAEYMFRDHLFTPAKVITLGSNEAIKQAVMAGMGISLLSLHTLGLELRTGEIGLLDVAGTPIERIWHVAHMSSKRLSPASESCRAYLLEHTAEFLGREYGGLMPGRRVA has a reported Chemoautotrophic RubisCO activity of 140 nmol/min/mg of protein

Just for reference, patent US20170298395A1 is where these values come from.
